tested_system: T1, human Ly6G6D polypeptide (UniProt O95868 20-104)
T1 chain: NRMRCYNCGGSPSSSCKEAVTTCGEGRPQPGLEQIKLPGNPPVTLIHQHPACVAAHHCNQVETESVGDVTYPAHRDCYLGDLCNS
experiment_description: BIAcore
Kd for assorted binders
Value expressed in nM; do not type the unit.

Example binders with recorded Kd:
hu6E10.K3-20.V3-48 (antibody, V domains shown) VH: EQQLVESGGGLVQPGGSLRLSCAVSGLSLSTNSINWVRQAPGKGLEWIGYIYHGDGIADYASWAKGRFTISKDSAKNSVYLQMNSLRAEDTAVYFCASGAGYSLFTLWGPGTLVTVSS VL: EAVLTQSPGTLSLSPGERATLSCQSSESVWHNNWLAWFQQKPGQRPRLLIYGASTLASGVPDRFSGSGSGTDFTLTISRLEPEDFAVYYCAGGYSSSDAHVFGGGTKVEIK | 1.3
hu6E10.K4-1.V3-53 (antibody, V domains shown) VH: EQQLVESGGGLIQPGGSLRLSCAVSGLSLSTNSINWVRQAPGKGLEWIGYIYHGDGIADYASWAKGRFTISKDSSKNTVYLQMNSLRAEDTAVYFCASGAGYSLFTLWGPGTLVTVSS VL: DAVLTQSPDSLAVSLGERATINCQSSESVWHNNWLAWFQQKPGQRPKLLIYGASTLASGVPDRFSGSGSGTDFTLTISSLQAEDVAVYYCAGGYSSSDAHVFGGGTKVEIK | 1.66
hu6E10.K1-5.V3-48 (antibody, V domains shown) VH: EQQLVESGGGLVQPGGSLRLSCAVSGLSLSTNSINWVRQAPGKGLEWIGYIYHGDGIADYASWAKGRFTISKDSAKNSVYLQMNSLRAEDTAVYFCASGAGYSLFTLWGPGTLVTVSS VL: DAQLTQSPSTLSASVGDRVTITCQSSESVWHNNWLAWFQQKPGKRPKLLIYGASTLASGVPSRFSGSGSGTEFTLTISSLQPDDFATYYCAGGYSSSDAHVFGGGTKVEIK | 1.03

Consider the record given below.
Endpoint output: Kd of hu6E10.K3-20.V4-4 (antibody, V domains shown) VH: EQQLQESGPGLVKPPGTLSLTCAVSGLSLSTNSINWVRQPPGKGLEWIGYIYHGDGIADYASWAKGRFTISKDSSKTQVSLKLSSVTAADTAVYFCASGAGYSLFTLWGPGTLVTVSS VL: EAVLTQSPGTLSLSPGERATLSCQSSESVWHNNWLAWFQQKPGQRPRLLIYGASTLASGVPDRFSGSGSGTDFTLTISRLEPEDFAVYYCAGGYSSSDAHVFGGGTKVEIK . Value? 3.11
